All values here come from patent US9975848B2.

tested on: YU-2; test: Infection by single-round luciferase viruses, HIV-1 YU-2 envelope; format: cell-based; settings: Human immunodeficiency virus 1, 48 h, read-out: YU-2 (μM)
Recorded metric: IC50 (µM)
Please reply with the bare figure in µM and do not write the unit itself.

Find the measured IC50 of CN(Cc1ccc2c(c1)C[C@H](CNC(=N)N)[C@H]2NC(=O)C(=O)Nc1ccc(Cl)c(F)c1)C(=N)N [(+)-BNM-IV-147] and report it.
0.8

---

Below, each entry is listed alongside its reported IC50.
System: YU-2
Test: Infection by single-round luciferase viruses, HIV-1 YU-2 envelope
Type: cell-based
Conditions: Human immunodeficiency virus 1, 48 h, read-out: YU-2 (μM)
Description: Compounds: Compounds are dissolved in dimethyl sulfoxide at a stock concentration of 10 mM, aliquoted, and stored at −20° C. Each compound is then diluted to 1 mM in serum-free Dulbecco's modified Eagle medium (DMEM) and used for different assays. […]
Please don't drop the unit; write it after the number.

CNCc1ccc2c(c1)[C@H](NC(=O)C(=O)Nc1ccc(Cl)c(F)c1)[C@@H](CNC(=N)N)C2 [(+)-JP-III-048] = 2.1 µM

Report IC50, nothing else, for this molecule: N=C(N)NC[C@H]1Cc2ccccc2[C@@H]1NC(=O)C(=O)Nc1ccc(Cl)c(F)c1 [(+)-DMJ-II-121]
3.8 µM

Look up and report measured IC50 for this entry: CN(Cc1ccc2c(c1)[C@H](NC(=O)C(=O)Nc1ccc(Cl)c(F)c1)[C@@H](CNC(=N)N)C2)C(=N)N [(−)-BNM-IV-197]
1.2 µM

Give the reported value of IC50 for this record: CNCc1ccc2c(c1)C[C@H](CNC(=N)N)[C@H]2NC(=O)C(=O)Nc1ccc(Cl)c(F)c1 [(+)-BNM-III-170]
1.5 µM
